# System: U2OS
# test-details: Multiplex assay against U2OS
# Type: toxicity, cell-based
# measurement-setup: human, 12 h, 1 µM, compound concentration 1 uM, replicate 1
reported-property: Population Fragmented Nuclei (%)

| compound | output-unit | data-value |
| --- | --- | --- |
| CNc1nc(NCc2ccc(NS(C)(=O)=O)cc2Cl)cc(-c2ccccn2)n1 | % | 12 |
| NC(=O)Nc1cc(-c2cccc(F)c2)sc1C(=O)N[C@H]1CCCNC1 | % | 7 |
| C=CC(=O)Nc1cc2c(Nc3ccc(F)c(Cl)c3)ncnc2cc1OCCCN1CCOCC1.Cl.Cl [CANERTINIB DIHYDROCHLORIDE] | % | 16 |
| CC(C)NCC(O)COc1ccc(CCOCC2CC2)cc1.Cl (stereo unspecified) [BETAXOLOL HYDROCHLORIDE] | % | 9 |
| c1cn2cc(-c3ccc4cn[nH]c4c3)nc(Nc3ccc(N4CCOCC4)cc3)c2n1 | % | 13 |
| Cn1cc(-c2[nH]c3cc(NC(=O)[C@H](N)C4CCCCC4)cc4c3c2C=NNC4=O)cn1 | % | 11 |
| Cc1[nH]c(/C=C2\C(=O)Nc3ccc(S(=O)(=O)N(C)c4cccc(Cl)c4)cc32)c(C)c1C(=O)N1CCN(C)CC1 | % | 13 |
| COc1cc(-n2cnc3cc(-c4ccc(Cl)cc4)sc3c2=O)ccc1OCCN1CCCC1 | % | 12 |
| CC[C@H](C)C(=O)O[C@H]1C[C@@H](C)C=C2C=C[C@H](C)[C@H](CC[C@@H]3C[C@@H](O)CC(=O)O3)[C@H]21 | % | 13 |
| CN1CCCC(n2nc(Cc3ccc(Cl)cc3)c3ccccc3c2=O)CC1.Cl (stereo unspecified) [AZELASTINE HYDROCHLORIDE] | % | 12 |
| Cc1nc(-c2ccc(-c3ccc(C(=O)N4CCc5cc6c(cc54)C4(CCN(C)CC4)CO6)cc3)c(C)c2)no1 | % | 11 |
| CN1CCN(c2ccc(OC(F)(F)F)c(Nc3ncc4c(n3)-c3c(c(C(N)=O)nn3CCO)CC4)c2)CC1 | % | 14 |
| CN(C)CC#Cc1ccc(OCCCc2sc(N3CCc4cccc(C(=O)Nc5nc6ccccc6s5)c4C3)nc2C(=O)O)c(F)c1 | % | 13 |
| OC1(c2ccc(Cl)cc2)CCN(Cc2c[nH]c3ccccc23)CC1 | % | 10 |
| Cl.N#Cc1ccc2[nH]cc(CCCCN3CCN(c4ccc5oc(C(N)=O)cc5c4)CC3)c2c1 [VILAZODONE HYDROCHLORIDE] | % | 17 |
| Cc1cc(C)cc(-c2cnc3cc(Cl)c(-c4cccc(O)c4)cc3c2OCCCN)c1 | % | 11 |
